# TESTED ON: Solute carrier family 2, facilitated glucose transporter member 1 (Homo sapiens) (UniProt P11166)
# Sequence (P11166 whole entry): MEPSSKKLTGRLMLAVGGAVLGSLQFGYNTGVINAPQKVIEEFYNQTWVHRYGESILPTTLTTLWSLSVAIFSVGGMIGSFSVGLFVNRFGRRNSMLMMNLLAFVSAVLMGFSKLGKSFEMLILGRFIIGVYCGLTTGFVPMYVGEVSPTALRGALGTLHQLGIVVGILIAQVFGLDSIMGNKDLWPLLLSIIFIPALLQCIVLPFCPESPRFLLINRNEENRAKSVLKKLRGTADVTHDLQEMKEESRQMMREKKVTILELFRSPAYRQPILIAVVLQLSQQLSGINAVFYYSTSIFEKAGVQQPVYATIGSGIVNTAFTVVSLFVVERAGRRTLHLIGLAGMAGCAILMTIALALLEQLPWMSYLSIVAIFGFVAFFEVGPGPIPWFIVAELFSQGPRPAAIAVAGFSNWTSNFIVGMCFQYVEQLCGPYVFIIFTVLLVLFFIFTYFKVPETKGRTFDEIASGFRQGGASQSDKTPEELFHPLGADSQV
# PROTOCOL DETAILS: ST_JUDE_LEISH: Cytotoxicity at 2uM final concentration against transgenic Leishmania Mexicana promastigotes LmGLUT1 that are glucose transport deficient and complemented with the human glucose transporter GLUT1. Activity is measured by DNA content using SYBR green in vitro
# Type: functional
Listed next: entries and their corresponding inhibition.
Numeric only. Scale: %

See these solved cases before continuing.
INSERT INTO results (compound, experimental_result) VALUES
  ('Cc1cc(N2Cc3ccccc3C2)nc(Nc2cccc(C#N)c2)n1', 4.07),
  ('Cc1cc(N(C)C2CCN(C)C2)nc(Nc2ccc(Cl)cc2)n1 (stereo not drawn)', 7.55);

query: I'd like to know its inhibition. The compound in question is `O=C(/C=C/c1ccc(-c2nc3ccc(Cl)cc3[nH]2)cc1)NCc1cccc(F)c1`
result: 4.5

query: Would you kindly share the measured inhibition for `COc1cc2nc(Nc3ccc(Oc4ccccc4)cc3)nc(Nc3ccc(Oc4ccccc4)cc3)c2cc1OC` ?
result: 6.52

query: May I ask what inhibition has been recorded for `Oc1cccc(-c2nc(-c3ccccc3)c(-c3ccc4oc5ccc(-c6[nH]c(-c7cccc(O)c7)nc6-c6ccccc6)cc5c4c3)[nH]2)c1` ?
result: 3.36

query: # get_value(readout='inhibition', item= N#Cc1cncc(-c2nc3c(N4CCCC(N)C4)cccc3n2CCNCc2ccccc2)c1 (stereo not drawn) )
result: 6.64

query: Reported inhibition for CC1(C)CC2CC(C)(CN2C(=O)c2cc(C(C)(C)C)nn2Cc2ccccc2)C1 (stereo not drawn) : what is it?
result: 7.67

query: Need inhibition, item `COc1ccc(-c2cnc(N)c(-c3nc4cc(Br)ccc4[nH]3)c2)cc1`
result: 9.38

----------
# Lookup of reported inhibition keyed by entry
# TESTED ON: Hexose transporter 1 (Plasmodium falciparum)
# PROTOCOL DETAILS: ST_JUDE_LEISH: Cytotoxicity at 2uM final concentration against transgenic Leishmania Mexicana promastigotes LmPfHT that are glucose transport deficient and complemented with the Plasmodium falciparum hexose transporter. Activity is measured by DNA content using SYBR green in vitro
# Format: functional
Report as: number unit

INSERT INTO assay_data (molecule, experimental_result) VALUES
  ('CCOC(=O)c1cnc2c(OC)cc(OC)c(Cl)c2c1Nc1cccc(C)c1C', '-0.69%');

query: State the recorded inhibition for this entry: Cc1cccc2nc(-c3ccc(-c4cccc(NC(=O)C(C)CN5CCN(C)CC5)c4)s3)[nH]c12 (stereo unspecified)
result: 10.8%

query: Can you look up the measured inhibition of `Cc1cc2c(cc1C(F)(F)F)N(C(=O)Nc1cnc(OCCN(C)C)c(C(F)(F)F)c1)CC2` for me?
result: 6.97%

query: What value of measured inhibition is listed for `O=C(/C=C/c1ccc(-c2nc3cc(F)c(F)cc3[nH]2)cc1)NCc1ccc(Cl)c(Cl)c1` ?
result: 4.32%

query: Sample COc1cc(OC)c(NC(=O)C2c3ccccc3C(=O)N(CC(C)C)C2c2cccs2)cc1Cl (stereo unspecified) — what was its inhibition?
result: 2.33%

query: Which value of inhibition has been reported for `O=C(NC1CC1)c1ccc(N2CCC(c3ccccc3)CC2)nc1` in the records?
result: 5.01%

----------
# TESTED ON: Hexose transporter 1 (Plasmodium falciparum) (UniProt O97467)
# PROTOCOL DETAILS: ST_JUDE_LEISH: Cytotoxicity at 2uM final concentration against transgenic Leishmania Mexicana promastigotes LmPfHT that are glucose transport deficient and complemented with the Plasmodium falciparum hexose transporter. Activity is measured by DNA content using SYBR green in vitro
# Assay type: functional
Quick reference for inhibition among some compounds
Number first, unit second.

For orientation, consider the following solved cases.
INSERT INTO results (compound, measured_metric, experimental_result) VALUES
  ('COc1ccc2nccc([C@@H](O)CN3CCC(NCc4cc5oc(=O)[nH]c5cc4Cl)CC3)c2c1', 'inhibition', '-1.56%'),
  ('COc1cccc(C(=O)Nc2nc3c(s2)CCN(Cc2ccccc2N2CCNCC2)CC3)c1', 'inhibition', '13.7%'),
  ('Cc1cccc2nc(-c3cccc(-c4cccc(NC(=O)COc5ccccc5C(N)=O)c4)c3)[nH]c12', 'inhibition', '3.3%');

query: Request - read-out inhibition | tested on Hexose transporter 1 (Plasmodium falciparum) (UniProt O97467) | compound `CN1CCC(N(C)C(=O)C=Cc2cn(-c3ccccc3)nc2-c2cc3ccccc3o2)CC1`
result: 1.17%
